# Test method notes: MM1S cell viability effects, profiling panel, calcein-AM fluorescence, 48 h, basal (AID 1165);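 further: viability of MM1S multiple myeloma cells under basal unstimulated conditions; test concentration not given here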
# Cond: higher = more signal
Assay metric: z-score

For orientation, consider the following solved cases.
>>> print(df.to_string())
                            chemical_string  meas_value
0  CCOC(=O)C[C@H]1[C@H](OC(=O)c2ccc(-c3ccccc3)cc2)[C@@H](NC(=O)Cc2ccc(OC)cc2)c2cc(OCCCO)ccc2N1C(=O)c1ccccc1        0.57
1               COc1cc(COC(C)=O)ccc1OC(C)=O     -0.0098
2  O=C(CS)NCCCCCCNC(=O)[C@@H]1C[C@@H]2C(=O)NCC(=O)N2[C@@H]1c1cccc(OCCO)c1        0.38

*Q* State its z-score: `C[N+](C)(C)CCCC[C@@H]1NC(=O)[C@H]2C[C@@H](C(=O)NCCCCCCNC(=O)CS)[C@@H](c3cccc(OCCO)c3)N2C1=O`
*A* 0.0157
